The origin of these recorded values is PubChem BioAssay (Tox21).

Test: qHTS assay to identify small molecule HDAC inhibitors - cell viability counter screen (AID 1259365); further: nearly all actives have a fitted effect of over 50% in size
Conditions: HCT-116 viability, CellTiter-Glo ATP luminescence, 2 h; series mostly up to 92.4 µM
The source made the active and inactive calls. The call rests on the fitted dose curve; in most records, active means well fitted cell-killing curve with a large enough effect in the repeat runs; inconclusive means weak or mixed curves, or effect the other way; inactive means flat fitted curve, though single readings scatter.
Classes used: 1 (active), 0 (inactive)

compound | group
Oc1ccc(C(c2ccc(O)cc2)(C(F)(F)F)C(F)(F)F)cc1 | 0
CCCN(CC)CC1COC2(CCC(C(C)(C)C)CC2)O1 (centres undefined) | 0
Cc1ccc(CCl)cc1 | 0
C[C@]12CC[C@@H]3c4ccc(OC(=O)N(CCCl)CCCl)cc4CC[C@H]3[C@@H]1CC[C@@H]2O | 0
CC(C)(C)c1ccc(CSc2cnn(C(C)(C)C)c(=O)c2Cl)cc1 | 0
CCCCOP(=O)(CCCC)OCCCC | 0
COc1cccc2c1C(=O)c1c(O)c3c(c(O)c1C2=O)C[C@@](O)(C(=O)CO)CC3OC1CC(N2CCOC(OC)C2)C(O)C(C)O1 (some centres undefined) | 0
O=c1[nH]c2ccccc2n1C1CCN(CCCC(c2ccc(F)cc2)c2ccc(F)cc2)CC1 | 0
CCOCCOC(C)=O | 0
CC(C)(COCC1CO1)COCC1CO1 (centres undefined) | 0
N#C/C=C/C#N | 0
C[As+](C)(C)CC(=O)[O-] | 0
CC(=O)OC1(c2ccccc2)CCN(CCc2ccccc2)CC1 | 0
N#CC(Cl)Cl | 0
Cc1cc(C(C)(C)c2cc(C)c(O)c(C)c2)cc(C)c1O | 0
Clc1ccc(C(c2ccc(Cl)cc2)C(Cl)(Cl)Cl)cc1 | 0
NC(=O)CCl | 0
C[C@@H]1O[C@@H](O[C@@H]2C=C3CC[C@@H]4[C@H](CC[C@]5(C)[C@@H](c6ccc(=O)oc6)CC[C@]45O)[C@@]3(C)CC2)[C@H](O)[C@H](O)[C@H]1O | 0
COC(=O)N(C(=O)N1CO[C@@]2(C(=O)OC)Cc3cc(Cl)ccc3C2=N1)c1ccc(OC(F)(F)F)cc1 | 0
O=C(Nc1ccc2[nH]ccc2c1)c1cc2cc(F)ccc2n1Cc1cccc(F)c1 | 0
CCCCN(CCCC)C(=S)[S-].CCCCN(CCCC)C(=S)[S-].[Zn+2] | 0
N#CCc1ccc(Cl)cc1 | 0
CNC(C)Cc1ccc2c(c1)OCO2 (centres undefined) | 0
O=C(O)c1cc[c]([Hg][Cl])cc1 | 0
c1ccc(OCC2CO2)cc1 (centres undefined) | 0
CCCCCCCCCCCCCN1CC(C)OC(C)C1 (centres undefined) | 0
CCC[CH2][Sn]([CH2]CCC)([CH2]CCC)[O]C(=O)c1ccccc1 | 1
O=[N+]([O-])O.O=[N+]([O-])O.[Cd] | 0
CC(=[OH+])/C=C(/C)[O-].CC(=[OH+])/C=C(\C)[O-].CC(=[OH+])/C=C(\C)[O-].[Fe] | 0
N#CNC#N | 0
C[C@]12Cc3nonc3C[C@@H]1CC[C@@H]1[C@@H]2CC[C@@]2(C)[C@H]1CC[C@]2(C)O | 0
CC(C)N1C(=O)N(c2ccccc2)CSC1=NC(C)(C)C | 0
BrCC(Br)c1ccccc1 (centres undefined) | 0
NC(=O)c1ccc(N)nc1 | 0
CC(=O)c1ccc(-c2ccccc2)cc1 | 0
ClC1=C(Cl)[C@]2(Cl)[C@@H]3[C@@H](Cl)[C@H](Cl)C[C@@H]3[C@@]1(Cl)C2(Cl)Cl | 0
[Hg+2].[I-].[I-] | 1
Clc1ccc(COC(Cn2ccnc2)c2ccc(Cl)cc2Cl)cc1 (centres undefined) | 0
N#Cc1c(-c2ccc(Cl)cc2)[nH]c(C(F)(F)F)c1Br | 0
CC(Cc1ccc(C(C)(C)C)cc1)CN1C[C@@H](C)O[C@@H](C)C1 (some centres undefined) | 0
C[C@H]1CC[C@@H]2[C@@H](C)[C@H]3[C@H](C[C@H]4[C@@H]5CC=C6CC(O[C@@H]7O[C@H](CO)[C@H](O)[C@H](O[C@@H]8O[C@H](CO)[C@@H](O)[C@H](O)[C@H]8O)[C@H]7O[C@H]7O[C@@H](C)[C@H](O)[C@@H](O)[C@H]7O)CC[C@]6(C)[C@H]5CC[C@]34C)N2C1 (some centres undefined) | 1
Nc1c(Oc2ccccc2)cc(O)c2c1C(=O)c1ccccc1C2=O | 0
N#CCCC(Br)(C#N)CBr (centres undefined) | 0
COc1cc(N)c(Cl)cc1C(=O)NC1CN2CCC1CC2 (centres undefined) | 0
Oc1ccc(C2(c3ccc(O)cc3)CCCCC2)cc1 | 0
CS(=O)(=O)c1ccc(C(=O)C2C(=O)CCCC2=O)c([N+](=O)[O-])c1 | 0
O=CC(Br)(Br)Br | 0
Cc1cc(C)cc(OP(=O)(Oc2cc(C)cc(C)c2)Oc2cc(C)cc(C)c2)c1 | 0
COc1ccc(N)cc1N | 1
